- Tested on: T1, human PD-L1 (Programmed Death Ligand-1), protein used in Biacore and ELISA (human, UniProt Q9NZQ7 19-239)
- T1 construct: also called hPD-L1; CD274
- T1 sequence (Q9NZQ7 19-239 limits assumed): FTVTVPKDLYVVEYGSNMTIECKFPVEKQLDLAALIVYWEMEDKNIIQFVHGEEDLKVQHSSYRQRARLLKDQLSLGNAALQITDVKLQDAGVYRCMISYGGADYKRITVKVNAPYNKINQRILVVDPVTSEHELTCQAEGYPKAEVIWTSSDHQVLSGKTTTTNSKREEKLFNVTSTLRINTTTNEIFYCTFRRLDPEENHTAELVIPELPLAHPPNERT
- Experiment notes: SPR (Biacore), human PD-L1
Observed property: kon (M⁻¹ s⁻¹)
Numbers only here, please. The scale is M⁻¹ s⁻¹.

Reference set (2 entries):
INSERT INTO results (binder, observed) VALUES
  ('ADX_5417_E01 (designed binder) MGVSDVPRDLEVVAATPTSLLISWRAQLSPSFYYRITYGETGGNSPVQEFTVPNDVMTATISGLKPGVDYTITVYAVTTHGVYFYSPISINYRTPCHHHHHH', '2e+07'),
  ('ADX_5322_A02 (designed binder) MGVSDVPRDLEVVAATPTSLLISWSYDGPIDRYYRITYGETGGNSPVQEFTVPPDQKTATISGLKPGVDYTITVYAVRLEEAHYNREFPISINYRTPCHHHHHH', '2.5e+06');

Could you now consider this next binder?
// query // lookup kon for ATI-965 (designed binder, 10Fn3 Adnectin) MGVSDVPRDLEVVAATPTSLLISWTAYDSVDKYYRITYGETGGNSPVQEFTVGPRHHTATISGLKPGVDYTITVYAVYHTEPGYHAHMPISINYRTEIDKPSQHHHHHH
// result 460000
